# Test system: MS2 coat protein
# experiment notes: apparent KD of MS2 coat protein; designed switch direction (-1 OFF switch, 1 ON switch): -1; higher = weaker reporter binding
# condition parameters: input ligand: none
apparent KD of MS2 coat protein below 20 nM gives no (0); apparent KD of MS2 coat protein at or above it gives yes (1).

{"seq string": "UUGCCACAUGAGGAUCACCCAUGUGAGGAUAUGGCCCGCCCGGCGUGUGCUGGUUUUGUCAGAAGGCGCGUGGG [salish99_ex1_r4_029] (Eterna round: R97, puzzle: Exclusion 1)", "discrete label": "yes (1)"}
{"seq string": "UGAUCACAUGAGGAUCACCCAUGUCAGGAUAUCGUCACUGGAGCCUCGGCUCCAGUGACGAGAAGGGACAUAAU [E1/3-A2] (Eterna round: R97, puzzle: Exclusion 1)", "discrete label": "yes (1)"}
{"seq string": "GUCACAUGGACAUAGGAUCACAUGAGGAUCACCCAUGUGACUAACAAGCUUUUUGCUCGUCUUAUGUCCAUGUGAAA [Stov1/15-A2] (Eterna round: R97, puzzle: Sensor, turn-off variant 1)", "discrete label": "no (0)"}
{"seq string": "UUACGGCGGAGAGGAUAUCCGAAAGGAAGUGUAGGAGAAGGCUCCAGUUGUACAUGAGGAUCACCCAUGUGAUCCUUUCCGAAA [PowerStrip EXNG 1.25] (Eterna round: R96, puzzle: Exclusion NG 1)", "discrete label": "yes (1)"}

---

# Test system: K4 kissing-loop RNA reporter;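 further: bound reporter read as fluorescence of individual clusters on recovered sequencing chips by microscopy, with normalized cluster intensities fitted with a binding model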
# experiment notes: apparent KD of K4 kissing-loop reporter; higher = weaker reporter binding
# condition parameters: Eterna round: R107; input ligand: arginine 13.2 mM
As shown below, each of these sequences has a reported apparent KD of K4 kissing-loop reporter value.

{"seq string": "AUCCGGAGUGCGGCCGCCACUAUCGGAUAGAGUGAUGUUCUAUCCGGCCUUAAAGGCGCGAACGAUAGGACCGGGCACUCUAAAU [Quatinti]", "apparent KD of K4 kissing-loop reporter": "124 nM"}
{"seq string": "UGUAAGCGCGUAGAUACCAGCAGACGAGUGAUGUUCAAAAGAUUAAGGAAAAGAAAGUAAUGCCCUUGGCAGCUAAUCAUAAGCG [whbob_Ex_Theo_B_sa92]", "apparent KD of K4 kissing-loop reporter": "460 nM"}
{"seq string": "AAAUACAUUUUAUUAUAUAACUUUUCAGAAGGAGCGUGGAAGUUCACAGGUAGGUCGCUGAAUAUUGGACUAGUGAUGUUAGUUA [JR_Nu_SSArginiA_Sub021]", "apparent KD of K4 kissing-loop reporter": "217 nM"}
{"seq string": "GCGCGUCAUGUCAGCGGUGACACUGUCGAUACCAGCGCCGGAAGGCGCCCUUGGCAGCGACGUGCUGGAGUGAUGUUCCAGCGUG [#2 Exclusion - Theophylline A Attempt #26 (HarryS)]", "apparent KD of K4 kissing-loop reporter": "158 nM"}
{"seq string": "AAAAUAGAUCAGUGAUGUUGGUGUCUGGAUACCAGCGAUAAUAGUCGCCCUUGGCAGCCAUGGACGUACAAAAUAAGUACGUCCU [MatMod 20 - Jieux - Same State - Theophylline A]", "apparent KD of K4 kissing-loop reporter": "239 nM"}

---

# System: MS2 coat protein
# experiment notes: apparent KD of MS2 coat protein; higher = weaker reporter binding
# condition parameters: Eterna round: R107; input ligand: arginine 13.2 mM

{"seq string": "AGUACUCGAACGGAUACCAGCCGGACAUGAGGAUCACCCAUGUCCUACCAUGGUUCGGUUGGCCCUUGGCAGCCGUUCGUGUACA [Omei Theo B SS A v3]", "apparent KD of MS2 coat protein (nM)": 128}
{"seq string": "CGGUUGCCACAUGAGGAUCACCCAUGUGAAGGAGCGGCGAAUAAGCCAGGUAGGUCGCGCAUGAAUAAAUCAUGUUGGUGCCGAA [XArg-A 17 V2]", "apparent KD of MS2 coat protein (nM)": 25.6}
{"seq string": "AUAAAUGGGUUAAUUAGUUUUAGGUCCAGUCGAGGACCGGUACGGCCGCCACUCGUCCCAAGUUACAUGAGGAUCACCCAUGUUA [JR_ExcTryptoA_Sub014]", "apparent KD of MS2 coat protein (nM)": 33.8}

---

# Tested on: MS2 coat protein
# experiment notes: apparent KD of MS2 coat protein; designed switch direction (-1 OFF switch, 1 ON switch): 1; higher = weaker reporter binding
# condition parameters: Eterna round: R95; input ligand: FMN 200 uM
property name: apparent KD of MS2 coat protein (nM)

{"seq string": "UCUUGGUUUUUGCUCGUUUUUUGUGUUGAACAUGAGGAUCACCCAUGUAUUGUACGGUCCAAUUUAAUAAUGGUCCG [JMF 23] (puzzle: Sensor for hsa-mir-208a)", "test system": "MS2 coat protein", "property name": "apparent KD of MS2 coat protein", "measured number": 26.3}
{"seq string": "AUAUAACAUGAGGAUCACCCAUGUCUCUAAAGUCGAGGAUAUGGGCAAAUAAUAUAAGAACCAGAAGGCGAAUUAU [SS1 Teenbexe 4] (puzzle: Same State 1)", "test system": "MS2 coat protein", "property name": "apparent KD of MS2 coat protein", "measured number": 143}
{"seq string": "CGUCCGGCCUGUGCUGGCCGGAAGCAUGUACAUGAGGAUCACCCAUGUUCAUGUGCAGGCUUUUUGCUCGUCUUGUG [salish99_mir208a_r3_006] (puzzle: Sensor for hsa-mir-208a)", "test system": "MS2 coat protein", "property name": "apparent KD of MS2 coat protein", "measured number": 41.3}
{"seq string": "AACAAUCUAUCUGAGGAUAUCAUGAAAUAAACAUGAGGAUCACCCAUGUGCAGGAAAACUGCAUAUGAGAAGGCAUAUAGAUUGA [salish99_ss2_r3_052] (puzzle: Same State 2)", "test system": "MS2 coat protein", "property name": "apparent KD of MS2 coat protein", "measured number": 63.7}
{"seq string": "UAGAGAGGAAGCGAGGAUAUCGUGUUAGGUACAUGAGGAUCACCCAUGUUUUAAGUAGAGAUAGGCGAGAAGGCGCAGGAGAAGA [JR_SS2_Sub089] (puzzle: Same State 2)", "test system": "MS2 coat protein", "property name": "apparent KD of MS2 coat protein", "measured number": 38}
{"seq string": "AGUCCAGCCUGAGCUGGACAAAGGCAUGUACAUGAGGAUCACCCAUGUCAUGUACAAGCUUUUUGCUCGUCUUAAAA [Zipper 46 - 1] (puzzle: Sensor for hsa-mir-208a)", "test system": "MS2 coat protein", "property name": "apparent KD of MS2 coat protein", "measured number": 161}
{"seq string": "AACAAUCUAUCUGAGGAUAUCAUGAAAUAAACAUGAGGAUCACCCAUGUGCAGGAAAACUGCAUUUGAGAAGGCAGAUAGAUUGA [salish99_ss2_r3_048] (puzzle: Same State 2)", "test system": "MS2 coat protein", "property name": "apparent KD of MS2 coat protein", "measured number": 14.6}
{"seq string": "AUCAAAACAAGUUGCAGUGUUCGUCUUUCACAUGAGGAUCACCCAUGUAAUAGCCCAGCGGAAGCACUCGGGCCACC [Arzasola] (puzzle: Sensor for hsa-mir-208a)", "test system": "MS2 coat protein", "property name": "apparent KD of MS2 coat protein", "measured number": 26.8}
{"seq string": "AGAGCCGGCACUGAGGAUAUUCAUAAUAAAACAUGAGGAUCACCCAUGUAGGCCAGAAGGCCUUGGGAGAAGGCAGGUCGGCUCG [Mat - Same State 2 - Mod of UCT - D68] (puzzle: Same State 2)", "test system": "MS2 coat protein", "property name": "apparent KD of MS2 coat protein", "measured number": 17.3}
{"seq string": "AAAAUUUCUGCACAGGAUAUGUAGUGUUUCACAUGAGGAUCACCCAUGUCAAAACCAGAGACUGUACAGAAGGGUGCGGUCGGAC [Onedxequ] (puzzle: Same State 2)", "test system": "MS2 coat protein", "property name": "apparent KD of MS2 coat protein", "measured number": 15.8}

---

# Test system: MS2 coat protein
# experiment notes: apparent KD of MS2 coat protein; designed switch direction (-1 OFF switch, 1 ON switch): -1; higher = weaker reporter binding
# condition parameters: input ligand: none

{"seq string": "ACAUGUCAUUGAGGAUAUCGCACACAUGAGGAUCACCCAUGUAAACGGAUGCUCUUACGUGGGUUCGAGAAGGCGAUGUACAUU [Ex NG2 #95] (Eterna round: R96, puzzle: Exclusion NG 2)", "test system": "MS2 coat protein", "apparent KD of MS2 coat protein (nM)": 142}
{"seq string": "AGUGUGGAGACAGGAUAUGAGAAUAGAUAGAAAUCAGAAGGGUCACAUGAGGAUCACCCAUGUAAAGUCUUGAGGAUGAGUGAU [Prohibition 2 - Jieux - Exclusion NG 1] (Eterna round: R96, puzzle: Exclusion NG 1)", "test system": "MS2 coat protein", "apparent KD of MS2 coat protein (nM)": 88.8}
{"seq string": "UUUAUAUAUGAAGGAUAUACUUAACAUGAGGAUCACCCAUGUGGUGUUGUGAGUGAGUGAGUUUAGUAGAAGGUCAAUUAUUUU [JMF's solution 27] (Eterna round: R96, puzzle: Exclusion NG 2)", "test system": "MS2 coat protein", "apparent KD of MS2 coat protein (nM)": 310}
{"seq string": "AGAGUACUGCGAGGAUAUACAUGAGGAUCACCCAUGUGGUGGUGUGAGGCAAAGCCUCACACCAUGUAGAAGGCGCAGUACUCA [Mat - Exclusion NG 2 - Mod of JL - D20] (Eterna round: R96, puzzle: Exclusion NG 2)", "test system": "MS2 coat protein", "apparent KD of MS2 coat protein (nM)": 42.3}

These entries and their values trace back to the supplement of paper PMC9170038.
